- RUN DESCRIPTION: folding enthalpy; higher = less favourable; fluorescence melt of hairpins on a sequencing array, two-state fit
- TEST PARAMETERS: sodium 0.088 M
READOUT KIND: folding enthalpy (kcal/mol)
Kindly provide the numeric value in kcal/mol only, without the unit symbol.

State, in one line, measured folding enthalpy of GTAATCTCGAAAGAGTAC (((..(((....))))))
-10.9

State, in one line, measured folding enthalpy of GATGCGGGAAACCGTGTC ((..(((....)))..))
-26.3

State, in one line, measured folding enthalpy of GATCAGTTGTCTGATC ((((((....))))))
-39.2

State, in one line, measured folding enthalpy of GCGCTCGGAAACAAGCGC (((((.(....).)))))
-46.7

State, in one line, measured folding enthalpy of GCGGCCGCCGC ((((...))))
-19.9

State, in one line, measured folding enthalpy of GTTTTCGGAAACGAAAGC (.(((((....))))).)
-25.9

State, in one line, measured folding enthalpy of GGACGGCCGAAAGGCTCC (((..(((....))))))
-10.8

State, in one line, measured folding enthalpy of GATCTAAATGTAGATC ((((((....))))))
-26.8

State, in one line, measured folding enthalpy of GGTTAAGGAAACTTAACC (((((((....)))))))
-38.5

State, in one line, measured folding enthalpy of GGTTAAGAAATTAACC ((((((....))))))
-23.8

State, in one line, measured folding enthalpy of GTGAACGGAAACGTTCGC (.(((((....))))).)
-28.9

State, in one line, measured folding enthalpy of GATCACATGCGTGATC ((((((....))))))
-38.4

State, in one line, measured folding enthalpy of GGCCCCACGAAAGTGGCC (((..(((....))))))
-11.8

State, in one line, measured folding enthalpy of GATCCCATTCGGGATC ((((((....))))))
-38.7

State, in one line, measured folding enthalpy of GGTGAGGGAAACTTCGCC ((.((.(....).)).))
-23.7

State, in one line, measured folding enthalpy of GACTCCGAAAGGAAAGTC ((((((....)))..)))
-24.8

State, in one line, measured folding enthalpy of GCGGGGCGAAAGCACTGC ((.(.((....)).).))
-24.7

State, in one line, measured folding enthalpy of GGACACGAAAGTGTCTCC ((((((....)))..)))
-9.39

State, in one line, measured folding enthalpy of GCGGGTTCCGC ((((...))))
-25.4

State, in one line, measured folding enthalpy of GCGTGCGAAAGCACTCGC ((((((....)))..)))
-12.4

State, in one line, measured folding enthalpy of GATCCACTGGTGGATC ((((((....))))))
-39.4

State, in one line, measured folding enthalpy of GCAAGATCGAAAGATTGC (((..(((....))))))
-21.3

State, in one line, measured folding enthalpy of GTGTACGAAAGTATCAC ((((((....))).)))
-22.8

State, in one line, measured folding enthalpy of GCGTTACCGAAAGGTCGC (((..(((....))))))
-25.3

State, in one line, measured folding enthalpy of GATTGCGAAAGCAGTATC ((((((....)))..)))
-10.9

State, in one line, measured folding enthalpy of GGACTCGGAAACAAGTCC (((((.(....).)))))
-27.8
